Source of measurements: patent US20230135152A1

So I've got a bunch of compounds here, and I need their IC50 values.
# TESTED TARGET: UniProtKB Q9Y2I7
# Sequence (Q9Y2I7 whole entry): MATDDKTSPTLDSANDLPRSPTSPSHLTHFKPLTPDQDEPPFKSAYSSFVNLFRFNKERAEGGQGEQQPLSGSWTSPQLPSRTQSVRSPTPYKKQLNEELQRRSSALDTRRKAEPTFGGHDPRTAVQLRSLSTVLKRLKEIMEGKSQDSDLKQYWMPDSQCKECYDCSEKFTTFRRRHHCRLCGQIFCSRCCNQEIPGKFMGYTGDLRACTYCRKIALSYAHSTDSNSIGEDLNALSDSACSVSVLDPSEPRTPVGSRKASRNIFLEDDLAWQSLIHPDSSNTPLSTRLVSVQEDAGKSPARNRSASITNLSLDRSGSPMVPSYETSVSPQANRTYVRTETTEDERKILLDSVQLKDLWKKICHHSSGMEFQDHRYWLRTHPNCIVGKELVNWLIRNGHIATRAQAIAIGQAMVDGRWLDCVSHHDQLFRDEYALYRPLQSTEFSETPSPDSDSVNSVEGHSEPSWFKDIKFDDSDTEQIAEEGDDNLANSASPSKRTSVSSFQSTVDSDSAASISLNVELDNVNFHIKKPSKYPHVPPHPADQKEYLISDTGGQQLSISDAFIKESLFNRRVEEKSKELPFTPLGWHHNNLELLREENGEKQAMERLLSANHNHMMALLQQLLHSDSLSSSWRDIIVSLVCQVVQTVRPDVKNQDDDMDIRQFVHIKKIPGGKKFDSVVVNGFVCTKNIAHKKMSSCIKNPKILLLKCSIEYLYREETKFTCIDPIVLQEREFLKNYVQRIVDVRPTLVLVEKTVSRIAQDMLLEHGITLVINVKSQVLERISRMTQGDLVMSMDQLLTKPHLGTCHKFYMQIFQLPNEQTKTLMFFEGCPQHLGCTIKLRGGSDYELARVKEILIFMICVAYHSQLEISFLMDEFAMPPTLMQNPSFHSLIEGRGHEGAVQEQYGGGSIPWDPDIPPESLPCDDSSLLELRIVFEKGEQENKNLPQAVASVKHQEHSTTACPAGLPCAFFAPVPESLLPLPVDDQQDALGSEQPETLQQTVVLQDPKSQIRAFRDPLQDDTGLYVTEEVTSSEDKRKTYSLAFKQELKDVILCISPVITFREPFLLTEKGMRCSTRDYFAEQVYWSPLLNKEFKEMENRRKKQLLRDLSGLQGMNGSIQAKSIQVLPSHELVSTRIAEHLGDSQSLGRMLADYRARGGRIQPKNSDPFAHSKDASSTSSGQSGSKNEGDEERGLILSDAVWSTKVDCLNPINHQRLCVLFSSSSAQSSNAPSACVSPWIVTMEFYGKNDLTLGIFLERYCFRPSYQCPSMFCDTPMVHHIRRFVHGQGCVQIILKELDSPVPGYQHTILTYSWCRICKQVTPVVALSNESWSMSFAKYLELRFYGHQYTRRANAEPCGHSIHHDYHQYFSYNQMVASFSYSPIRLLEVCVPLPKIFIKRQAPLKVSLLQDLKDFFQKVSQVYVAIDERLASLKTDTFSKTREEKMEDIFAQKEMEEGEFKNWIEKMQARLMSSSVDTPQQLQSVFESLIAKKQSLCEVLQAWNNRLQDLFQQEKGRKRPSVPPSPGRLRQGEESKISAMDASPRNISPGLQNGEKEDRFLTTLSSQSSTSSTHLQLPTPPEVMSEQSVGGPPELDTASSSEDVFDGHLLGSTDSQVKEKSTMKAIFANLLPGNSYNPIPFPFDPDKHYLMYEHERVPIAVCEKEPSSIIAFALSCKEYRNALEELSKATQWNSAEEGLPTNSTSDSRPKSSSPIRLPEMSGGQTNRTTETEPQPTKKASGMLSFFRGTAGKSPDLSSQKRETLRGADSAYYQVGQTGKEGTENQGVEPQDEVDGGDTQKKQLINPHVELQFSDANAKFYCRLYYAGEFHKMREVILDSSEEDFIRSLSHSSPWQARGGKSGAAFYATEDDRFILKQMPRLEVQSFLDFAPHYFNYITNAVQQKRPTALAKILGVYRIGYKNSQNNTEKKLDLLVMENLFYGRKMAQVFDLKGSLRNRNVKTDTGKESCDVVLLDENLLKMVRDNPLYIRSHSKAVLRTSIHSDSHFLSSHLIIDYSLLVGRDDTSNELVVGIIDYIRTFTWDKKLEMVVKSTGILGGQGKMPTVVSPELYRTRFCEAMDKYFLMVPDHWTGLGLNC
# PROCEDURE TEXT: PIKFYVE assay (luciferase ADP-Glo kinase assay, Promega)
# Type: biochemical
# SETTINGS: Table 3
Structures can show the parent of a compound that is named as a salt.

Lab note: UniProtKB Q9Y2I7 assay, enter IC50 for `Cc1cccc(-c2ccn(-c3cc(N4CCOCC4)nc(OCCCC#N)n3)n2)c1` here
< 3 nM

Look up UniProtKB Q9Y2I7 data: IC50 of `CO[C@@H](CO)c1nc(N2CCOCC2)cc(-n2nc(-c3c[nH]c4cccnc34)cc2C)n1` , then report it.
100 to 5000 nM

Report IC50 on UniProtKB Q9Y2I7 for this entry: `Cc1cccc(-c2cc(CO)n(-c3cc(N4CCOCC4)nc(OCCc4cnn(C)c4)n3)n2)c1`
< 3 nM

State measured IC50 of the compound `CO[C@H](CO)c1nc(N2CCOCC2)cc(-n2nc(-c3cnc4ccccn34)cc2C)n1` with UniProtKB Q9Y2I7.
100 to 5000 nM

Lab note: record IC50 of `Cc1cccc(-c2ccn(-c3cc(N4CCOCC4)nc(OC4COC4)n3)n2)c1` tested on UniProtKB Q9Y2I7.
< 3 nM

System UniProtKB Q9Y2I7. Read-out IC50. Item `CO[C@H](CO)c1nc(N2CCOCC2)cc(-n2ccc(-c3cccc4c3COC4)n2)n1` . Report value.
100 to 5000 nM

Lab note: UniProtKB Q9Y2I7 assay, enter IC50 for `Cc1cc(-c2ccccc2)nn1-c1cc(N2CCOCC2)c2[nH]ccc2n1` here
100 to 5000 nM

Tell me IC50 of Cc1cccc(-c2ccn(-c3cc(N4CC[C@H]5OCC[C@H]54)nc(C(O)CO)n3)n2)c1 (stereo partly drawn) when tested on UniProtKB Q9Y2I7.
10 to 100 nM

Provide IC50, recorded with UniProtKB Q9Y2I7, of COC(CO)c1nc(N2CCOCC2)cc(-n2nc(-c3c[nH]c4ccccc34)cc2C)n1 (single isomer, unassigned)
< 3 nM

Give measured IC50 for CO[C@@H](CO)c1nc(N2CCOCC2)cc(-n2nc(-c3ccccc3)cc2C2CC2)n1 (single isomer, unassigned) (UniProtKB Q9Y2I7).
10 to 100 nM

Look up UniProtKB Q9Y2I7 data: IC50 of Cc1cccc(-c2ccn(-c3nc4c(c(N5CCOCC5)n3)CN(CCc3ccn(C)n3)C4)n2)c1 [Compound 239, hydrochloride] , then report it.
10 to 100 nM

Write down the reported IC50 (system: UniProtKB Q9Y2I7) of CO[C@@H](CO)c1nc(N2CCOCC2)cc(-n2nc(-c3c[nH]c4ccccc34)cc2C)n1 (single isomer, unassigned)
< 3 nM

Determine reported IC50 for Cn1nccc1CC(O)c1nc(N2CCOCC2)cc(-n2ccc(-c3ccccc3)n2)n1 (stereo not drawn) ; test system: UniProtKB Q9Y2I7.
10 to 100 nM

State IC50 on UniProtKB Q9Y2I7. Entry: `Cn1cc(CCOc2nc(N3CCOCC3)cc(-n3nc(O)cc3-c3ccccc3)n2)cn1`
< 3 nM

Under UniProtKB Q9Y2I7: report IC50 of `COc1nc(N2CCOCC2)cc(-n2nc(-c3cccc(C)c3)cc2CN2CCOCC2)n1` .
< 3 nM
